Please consider the recorded MIC for Escherichia coli MG1655 in what follows.

Consider the reported MIC for these compounds:
COMPOUND	TARGET_SYSTEM	MIC
CSCC[C@H](NC(=O)[C@@H](NC(=O)[C@@H](N)CCCCN)C(C)C)C(=O)N[C@@H](CCCN=C(N)N)C(=O)N[C@@H](CCC(=O)O)C(=O)N[C@H](C(=O)N[C@@H](CC(C)C)C(=O)NCC(=O)N[C@@H](Cc1ccc(O)cc1)C(=O)N[C@@H](CCC(=O)O)C(=O)N[C@@H](CCCN=C(N)N)C(=O)N[C@@H](CC(N)=O)C(=O)N[C@@H](CO)C(=O)N[C@@H](Cc1ccc(O)cc1)C(=O)N[C@@H](CCCCN)C(N)=O)C(C)C [KVMREVLGYERNSYK]	Escherichia coli MG1655	≥ 128 µM
CSCC[C@H](NC(=O)[C@@H](NC(=O)[C@H](CCCCN)NC(=O)[C@H](Cc1cnc[nH]1)NC(=O)[C@H](CC(C)C)NC(=O)CN)C(C)C)C(=O)N[C@@H](CCCN=C(N)N)C(=O)N[C@@H](CCC(=O)O)C(=O)N[C@H](C(=O)N[C@@H](CC(C)C)C(=O)NCC(=O)N[C@@H](Cc1ccc(O)cc1)C(N)=O)C(C)C [GLHKVMREVLGY]	Escherichia coli MG1655	≥ 128 µM
CC[C@H](C)[C@H](N)C(=O)N[C@@H](CCCCN)C(=O)N[C@H](C(=O)N[C@H](C(=O)N[C@@H](C)C(=O)N1CCC[C@H]1C(=O)N[C@@H](CCCCN)C(=O)N[C@@H](CCCCN)C(=O)N[C@H](C(=O)N[C@@H](CCCCN)C(=O)N[C@@H](CC(C)C)C(=O)O)[C@@H](C)CC)C(C)C)[C@@H](C)CC [IKIVAPKKIKL]	Escherichia coli MG1655	≥ 102 µM

Consider the record given below.
Provide MIC, system Escherichia coli MG1655, entry CSCC[C@H](NC(=O)[C@@H](NC(=O)[C@H](CCCCN)NC(=O)[C@H](Cc1cnc[nH]1)NC(=O)[C@H](CC(C)C)NC(=O)CN)C(C)C)C(=O)N[C@@H](CCCN=C(N)N)C(=O)N[C@@H](CCCCN)C(=O)N[C@H](C(=O)N[C@@H](CC(C)C)C(=O)NCC(=O)N[C@@H](Cc1ccc(O)cc1)C(=O)N[C@@H](CC(C)C)C(=O)N[C@@H](CCCN=C(N)N)C(=O)N[C@@H](CC(N)=O)C(=O)N[C@H](C(=O)N[C@@H](Cc1ccc(O)cc1)C(=O)N[C@@H](CCCCN)C(N)=O)C(C)C)C(C)C [GLHKVMRKVLGYLRNVYK]
1 µM

Values from DBAASP
